- TEST_TARGET: ScBem1-D1
- EXPERIMENT_NOTES: SPOT peptide array binding signal intensity (averaged, normalized) (arbitrary units (background-subtracted, floor 0; scale differs between SH3 domains)); higher = stronger binding of the SH3 domain to the peptide
Entries and their measured SPOT peptide array binding signal intensity follow.

BINDER	OBSERVED_MEASUREMENT
FTLPPPPPPPGLDEL	≤ 0
YSRKKLPVVLSKMTL	31
MFLISPPASPPPEFD	≤ 0
RTIRKLPLMSLSEYF	48
RRARRQMGIPTISQV	100
RSVKRPRRAPRPVVS	46.5

// next item, SPOT peptide array binding signal intensity requested
For PSPSSSPPPIPKTAN , write its SPOT peptide array binding signal intensity.
≤ 0

These measurements were taken from the supplement of paper PMC4466140.
